biological target: AsPC-1 HiBiT-KRASG12D (Homo sapiens, UniProt P01116, G12D); construct: insert the HiBiT tag onto the N-terminus of one or more of the endogenous KRAS alleles; endogenous in cells; host or cells: AsPC-1 (ATCC CRL-1682), CRISPR-Cas9 knock-in clone, one tagged allele; assay: HiBiT degradation assay (G12D), AsPC-1 HiBiT-KRASG12D cells; type: cell-based; conditions: AsPC-1 HiBiT-KRASG12D cells, 24 hours treatment, HiBiT luminescence
Sequence (P01116 1-188 isoform P01116-2 G12D): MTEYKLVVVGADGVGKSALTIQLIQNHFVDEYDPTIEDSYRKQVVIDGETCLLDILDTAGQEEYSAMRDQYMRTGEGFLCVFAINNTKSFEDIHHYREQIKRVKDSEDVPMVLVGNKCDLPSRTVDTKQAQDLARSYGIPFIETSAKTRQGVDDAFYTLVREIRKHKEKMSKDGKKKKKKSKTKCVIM
METRIC NAME: DC50

[[record]]
compound = "CCc1cccc2cc(O)cc(-c3ncc4c(N5CCCCCC5)nc(OC[C@]56CCCN5[C@H](COC(=O)N5CC7(C5)CN(c5cc([C@@H](C(=O)N8C[C@H](O)C[C@H]8C(=O)N[C@@H](C)c8ccc(-c9scnc9C)cc8)C(C)C)on5)C7)CC6)nc4c3F)c12"
metric_name = "DC50"
result = "> 3000 nM"


Would you be so kind as to report DC50 for each listed record?
1. CCc1cccc2cc(O)cc(-c3ncc4c(N5CC6CCC(C5)N6)nc(OC[C@]56CCCN5[C@H](COC(=O)N5CCN(c7cc([C@H](C(=O)N8C[C@H](O)C[C@H]8C(=O)N[C@@H](C)c8ccc(-c9scnc9C)cc8)C(C)C)on7)C[C@@H]5C)CC6)nc4c3F)c12
2. CCc1cccc2cc(O)cc(-c3ncc4c(N5C[C@H]6CC[C@@H](C5)N6)nc(OCCN5CCC(C)(CN6CCN(c7cc([C@H](C(=O)N8C[C@H](O)C[C@H]8C(=O)N[C@@H](C)c8ccc(-c9scnc9C)cc8)C(C)C)on7)CC6)CC5)nc4c3F)c12
3. CCc1cccc2cc(O)cc(-c3ncc4c(N5CC6CCC(C5)N6)nc(OC[C@@H]5CC[C@@H](COC(=O)N6CC(Oc7cc([C@@H](C(=O)N8C[C@H](O)C[C@H]8C(=O)N[C@@H](C)c8ccc(-c9scnc9C)cc8)C(C)C)on7)C6)N5C)nc4c3F)c12

Result:
< 600 nM
< 600 nM
< 600 nM

Would you be so kind as to report DC50 for each listed record?
1. CCc1cccc2cc(O)cc(-c3ncc4c(N5CC6CCC(C5)N6)nc(OCCN5CCC(CCOCC(=O)N[C@H](C(=O)N6C[C@H](O)C[C@H]6C(=O)N[C@@H](C)c6ccc(-c7scnc7C)cc6)C(C)(C)C)CC5)nc4c3F)c12
2. C#Cc1c(F)ccc2cccc(-c3ncc4c(N5CC6CCC(C5)N6)nc(OC[C@]56CCCN5[C@@H](COC(=O)N5CCN(c7cc([C@H](C(=O)N8C[C@H](O)C[C@H]8C(=O)N[C@@H](C)c8ccc(-c9scnc9C)cc8)C(C)C)on7)CC5)CC6)nc4c3F)c12 (single isomer, unassigned)
3. CCc1cccc2cccc(-c3ncc4c(N5CCCCCC5)nc(OC[C@]56CCCN5[C@H](COC(=O)N5CCN(c7cc([C@H](C(=O)N8C[C@H](O)C[C@H]8C(=O)N[C@@H](C)c8ccc(-c9scnc9C)cc8)C(C)C)on7)CC5)CC6)nc4c3F)c12 (relative stereo)
4. CCc1cccc2cc(O)cc(-c3ncc4c(N5CC6CCC(C5)N6)nc(OC[C@@]56CCCN5[C@H](COC(=O)N5CCN(c7cc([C@@H](C(=O)N8C[C@H](O)C[C@H]8C(=O)N[C@@H](C)c8ccc(-c9scnc9C)cc8)C(C)C)on7)[C@H](C)C5)CC6)nc4c3F)c12

Result:
1. 600 to 1000 nM
2. < 600 nM
3. > 3000 nM
4. > 3000 nM
